Source of measurements: the supplement of paper PMC6555819

- Tested on: LXRa:RXRa (NR concentration 270 nM, RXRa partner concentration 90 nM)
- assay explanation: PBM binding z-score (relative to random genomic background probes); higher = stronger binding; sequences stand for … in GC…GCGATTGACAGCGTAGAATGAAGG
measurement type: PBM binding z-score

[
  {
    "seq": "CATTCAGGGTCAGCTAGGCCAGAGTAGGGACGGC",
    "measured number": 4.08
  },
  {
    "seq": "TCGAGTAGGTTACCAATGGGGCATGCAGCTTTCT",
    "measured number": 0.818
  },
  {
    "seq": "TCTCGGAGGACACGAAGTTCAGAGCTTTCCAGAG",
    "measured number": 0.0816
  },
  {
    "seq": "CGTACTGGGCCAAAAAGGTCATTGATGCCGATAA",
    "measured number": 4.43
  },
  {
    "seq": "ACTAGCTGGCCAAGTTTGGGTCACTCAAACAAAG",
    "measured number": -0.318
  },
  {
    "seq": "TCATATAGGTAAATGCTAGGTGAACGTCCGATCT",
    "measured number": 0.682
  },
  {
    "seq": "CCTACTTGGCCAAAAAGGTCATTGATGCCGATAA",
    "measured number": 4.79
  },
  {
    "seq": "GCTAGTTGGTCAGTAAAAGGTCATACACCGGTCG",
    "measured number": 4.37
  },
  {
    "seq": "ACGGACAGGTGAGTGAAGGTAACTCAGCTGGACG",
    "measured number": 0.141
  },
  {
    "seq": "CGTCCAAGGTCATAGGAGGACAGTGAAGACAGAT",
    "measured number": 6.2
  },
  {
    "seq": "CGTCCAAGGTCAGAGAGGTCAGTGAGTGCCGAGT",
    "measured number": 5.06
  },
  {
    "seq": "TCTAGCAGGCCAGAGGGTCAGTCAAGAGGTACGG",
    "measured number": 0.152
  },
  {
    "seq": "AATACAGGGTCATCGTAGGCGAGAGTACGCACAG",
    "measured number": 6.16
  },
  {
    "seq": "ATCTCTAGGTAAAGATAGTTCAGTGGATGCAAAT",
    "measured number": 4.13
  },
  {
    "seq": "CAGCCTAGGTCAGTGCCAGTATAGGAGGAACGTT",
    "measured number": 0.456
  }
]

----------
- System: PPARa:RXRa (NR concentration 270 nM, RXRa partner concentration 90 nM)
- assay explanation: PBM binding z-score (relative to random genomic background probes); higher = stronger binding; sequences stand for … in GC…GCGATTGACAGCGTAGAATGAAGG
Items are presented alongside their recorded PBM binding z-score.
measurement type: PBM binding z-score

[
  {
    "seq": "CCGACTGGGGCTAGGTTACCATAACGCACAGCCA",
    "measured number": -0.107
  },
  {
    "seq": "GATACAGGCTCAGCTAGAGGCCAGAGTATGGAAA",
    "measured number": -1.21
  },
  {
    "seq": "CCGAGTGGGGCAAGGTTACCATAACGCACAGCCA",
    "measured number": 1.78
  },
  {
    "seq": "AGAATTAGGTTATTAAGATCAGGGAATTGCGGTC",
    "measured number": 1.87
  },
  {
    "seq": "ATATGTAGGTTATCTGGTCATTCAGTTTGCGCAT",
    "measured number": 3.58
  },
  {
    "seq": "TGAATGAGGGTATAAGATCAGGGAACGTTGCAAA",
    "measured number": 0.874
  },
  {
    "seq": "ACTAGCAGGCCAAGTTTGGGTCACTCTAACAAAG",
    "measured number": 1.03
  },
  {
    "seq": "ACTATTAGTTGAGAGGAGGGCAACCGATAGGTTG",
    "measured number": 0.335
  },
  {
    "seq": "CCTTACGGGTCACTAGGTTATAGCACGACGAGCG",
    "measured number": 5.02
  },
  {
    "seq": "GCTTGAAGATCAAGGTTAAGAAAGACTAAGCTAA",
    "measured number": 1.44
  },
  {
    "seq": "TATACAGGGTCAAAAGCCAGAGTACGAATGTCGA",
    "measured number": 5.48
  },
  {
    "seq": "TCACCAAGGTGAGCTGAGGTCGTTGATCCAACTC",
    "measured number": 1.6
  },
  {
    "seq": "CCTCGGAGGACAACAGGAGGTCTGAGCTGCCAGA",
    "measured number": -0.764
  }
]

----------
- Tested on: RXRa DBDmut IVT, anti-RXR (DBD mutation: RXRa K156A/R161A, NR concentration 90 nM)
- assay explanation: PBM binding z-score (relative to random genomic background probes); higher = stronger binding; sequences stand for … in GC…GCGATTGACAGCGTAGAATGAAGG
A collection of sequences and their measured PBM binding z-score

[
  {
    "seq": "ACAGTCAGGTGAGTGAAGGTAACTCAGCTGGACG",
    "target or test system": "RXRa DBDmut IVT, anti-RXR (DBD mutation: RXRa K156A/R161A, NR concentration 90 nM)",
    "PBM binding z-score": -0.471
  },
  {
    "seq": "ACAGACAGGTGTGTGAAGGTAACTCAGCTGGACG",
    "target or test system": "RXRa DBDmut IVT, anti-RXR (DBD mutation: RXRa K156A/R161A, NR concentration 90 nM)",
    "PBM binding z-score": -0.313
  },
  {
    "seq": "TGAAAGAGGTTAAAGATCAGGGAACGTGGCGTCG",
    "target or test system": "RXRa DBDmut IVT, anti-RXR (DBD mutation: RXRa K156A/R161A, NR concentration 90 nM)",
    "PBM binding z-score": 0.56
  },
  {
    "seq": "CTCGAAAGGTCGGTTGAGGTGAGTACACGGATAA",
    "target or test system": "RXRa DBDmut IVT, anti-RXR (DBD mutation: RXRa K156A/R161A, NR concentration 90 nM)",
    "PBM binding z-score": 0.908
  },
  {
    "seq": "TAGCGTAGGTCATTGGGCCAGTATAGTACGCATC",
    "target or test system": "RXRa DBDmut IVT, anti-RXR (DBD mutation: RXRa K156A/R161A, NR concentration 90 nM)",
    "PBM binding z-score": 0.868
  },
  {
    "seq": "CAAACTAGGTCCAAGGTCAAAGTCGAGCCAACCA",
    "target or test system": "RXRa DBDmut IVT, anti-RXR (DBD mutation: RXRa K156A/R161A, NR concentration 90 nM)",
    "PBM binding z-score": 2.47
  },
  {
    "seq": "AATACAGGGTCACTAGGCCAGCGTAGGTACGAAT",
    "target or test system": "RXRa DBDmut IVT, anti-RXR (DBD mutation: RXRa K156A/R161A, NR concentration 90 nM)",
    "PBM binding z-score": 2.81
  },
  {
    "seq": "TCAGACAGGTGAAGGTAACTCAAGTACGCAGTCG",
    "target or test system": "RXRa DBDmut IVT, anti-RXR (DBD mutation: RXRa K156A/R161A, NR concentration 90 nM)",
    "PBM binding z-score": 1.54
  },
  {
    "seq": "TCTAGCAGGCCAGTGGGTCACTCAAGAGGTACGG",
    "target or test system": "RXRa DBDmut IVT, anti-RXR (DBD mutation: RXRa K156A/R161A, NR concentration 90 nM)",
    "PBM binding z-score": -0.186
  },
  {
    "seq": "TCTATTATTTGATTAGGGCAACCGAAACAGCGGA",
    "target or test system": "RXRa DBDmut IVT, anti-RXR (DBD mutation: RXRa K156A/R161A, NR concentration 90 nM)",
    "PBM binding z-score": 1.27
  },
  {
    "seq": "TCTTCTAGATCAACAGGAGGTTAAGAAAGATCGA",
    "target or test system": "RXRa DBDmut IVT, anti-RXR (DBD mutation: RXRa K156A/R161A, NR concentration 90 nM)",
    "PBM binding z-score": 0.855
  },
  {
    "seq": "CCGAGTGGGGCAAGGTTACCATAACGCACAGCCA",
    "target or test system": "RXRa DBDmut IVT, anti-RXR (DBD mutation: RXRa K156A/R161A, NR concentration 90 nM)",
    "PBM binding z-score": -0.421
  },
  {
    "seq": "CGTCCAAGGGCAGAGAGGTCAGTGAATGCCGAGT",
    "target or test system": "RXRa DBDmut IVT, anti-RXR (DBD mutation: RXRa K156A/R161A, NR concentration 90 nM)",
    "PBM binding z-score": 1.49
  },
  {
    "seq": "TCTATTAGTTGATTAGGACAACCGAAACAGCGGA",
    "target or test system": "RXRa DBDmut IVT, anti-RXR (DBD mutation: RXRa K156A/R161A, NR concentration 90 nM)",
    "PBM binding z-score": 1.39
  },
  {
    "seq": "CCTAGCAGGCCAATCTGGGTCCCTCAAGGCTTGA",
    "target or test system": "RXRa DBDmut IVT, anti-RXR (DBD mutation: RXRa K156A/R161A, NR concentration 90 nM)",
    "PBM binding z-score": -0.491
  },
  {
    "seq": "CCTACTGGGCTAAGGTCATTGATCAGTCAAAGCA",
    "target or test system": "RXRa DBDmut IVT, anti-RXR (DBD mutation: RXRa K156A/R161A, NR concentration 90 nM)",
    "PBM binding z-score": 1.83
  },
  {
    "seq": "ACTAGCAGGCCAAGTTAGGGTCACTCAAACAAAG",
    "target or test system": "RXRa DBDmut IVT, anti-RXR (DBD mutation: RXRa K156A/R161A, NR concentration 90 nM)",
    "PBM binding z-score": -0.159
  },
  {
    "seq": "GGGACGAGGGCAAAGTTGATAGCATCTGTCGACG",
    "target or test system": "RXRa DBDmut IVT, anti-RXR (DBD mutation: RXRa K156A/R161A, NR concentration 90 nM)",
    "PBM binding z-score": 2.35
  },
  {
    "seq": "TCGAGTAGTTTAGGGGCATTCAGAATGGCGTCGA",
    "target or test system": "RXRa DBDmut IVT, anti-RXR (DBD mutation: RXRa K156A/R161A, NR concentration 90 nM)",
    "PBM binding z-score": 0.68
  },
  {
    "seq": "ATCGAAAGGTCGAGGTGAGGATAGAGAAAGGGAA",
    "target or test system": "RXRa DBDmut IVT, anti-RXR (DBD mutation: RXRa K156A/R161A, NR concentration 90 nM)",
    "PBM binding z-score": 0.642
  }
]
